Reported values of Kb for individual entries
target-of-assay: leukotriene D4 (LTD4) induced contraction of guinea pig tracheal spiral strips (Cavia porcellus)
Construct: Guinea pig (adult male albino Hartley strain) tracheal spiral strips; from tissue; host or cells: guinea pig trachea (spiral strips, adult male albino Hartley strain)
Sequence (Q2NNR5 whole entry): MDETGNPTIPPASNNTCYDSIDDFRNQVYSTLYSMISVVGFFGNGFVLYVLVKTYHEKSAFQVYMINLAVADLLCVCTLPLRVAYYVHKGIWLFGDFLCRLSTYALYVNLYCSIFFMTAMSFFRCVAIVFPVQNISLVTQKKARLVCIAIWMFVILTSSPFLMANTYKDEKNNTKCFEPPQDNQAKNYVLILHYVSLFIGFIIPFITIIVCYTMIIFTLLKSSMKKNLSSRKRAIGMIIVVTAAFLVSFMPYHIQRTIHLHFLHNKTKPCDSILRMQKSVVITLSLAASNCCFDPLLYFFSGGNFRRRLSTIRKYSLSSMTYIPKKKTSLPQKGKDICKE
procedure-summary: Inhibition of leukotriene (LTD4) induced contraction of guinea pig tracheal tissues in vitro
Format: cell-based, guinea pig (adult male albino Hartley strain)
condition-description: LTD4 agonist, 30 min pretreatment with test compound, meclofenamic acid 1 μM, EC30 relative to carbachol (10 μM), read-out: In Vitro -Log KB (converted)

Answered cases to consult:
smiles-data: CCCCCCCCC#CC(SCCC(=O)O)SCCC(=O)O
Kb: 10 µM

smiles-data: CCCCCCCCCCC#CC(SCCCC(=O)O)SCCCC(=O)O
Kb: 3.16 µM

smiles-data: CCCCCCCCCCC#CC(SCCC(=O)O)SCCC(=O)O
Kb: 0.794 µM

smiles-data: CCCCCCCCCCCCC#CC(SCCC(=O)O)SCCC(=O)O
Kb: 2 µM

// below: Kb requested for another compound
Query block: Identify Kb associated with the compound `CCCCCCCCCCC#CC(SCC(=O)O)SCC(=O)O`
Result block: 5.01 µM

Data provenance is patent US4623535A.
